Exercise: state measured Cell viability, % of DMSO control for each of the compounds provided.
- Tested on: PNT2A cells
- ASSAY_REMARKS: Cytotoxicity Alamar Blue assay on normal prostatic epithelial cells
- Assay type: cell-based, human
- TEST_PARAMETERS: 100 μg/mL, % of DMSO control values, n = 3
// return the numeric value with its unit appended

Q: Recorded Cell viability, % of DMSO control of CC(C)(O)c1cc2c(o1)C(=O)c1ccccc1C2=O [Compound 4, avicequinone C] , please.
A: 68.6%

Q: Need Cell viability, % of DMSO control of CC1(C)CC[C@]2(C)CC=C3[C@]4(C)CC[C@H]5C(C)(C)C(=O)CC[C@]5(C)[C@H]4CC[C@@]3(C)[C@@H]2C1 [Compound 6, taraxerone] , thanks.
A: 88.8%

Q: Which Cell viability, % of DMSO control is listed for COc1c2c(c(OC)c3ccccc13)OC(C(C)(C)O)C2 (stereo not shown) [Compound 3, avicenol C] ?
A: 78.3%

Q: Look at this compound and give its reported Cell viability, % of DMSO control. CC(C)=CCC12OC(C(C)(C)O)CC1=C(O)c1ccccc1C2=O (stereo not shown) [Compound 2, glycosemiquinone]
A: 86.1%

---

- System: PNT2A cells
- ASSAY_REMARKS: Cytotoxicity Alamar Blue assay on normal prostatic epithelial cells
- Format: cell-based, human
- TEST_PARAMETERS: 100 μg/mL, % of DMSO control values, n = 3
We label by threshold. Values of Cell viability, % of DMSO control strictly beneath 90% are Met. Values of 90% and up are Not met.

Q: Determine whether this compound shows Cell viability, % of DMSO control lower than 90% (ties excluded): CC[C@H](/C=C/[C@@H](C)[C@H]1CC[C@H]2[C@@H]3CC=C4C[C@@H](O)CC[C@]4(C)[C@H]3CC[C@]12C)C(C)C [Compound 9, stigmasterol]
A: Not met

Q: Is the reported Cell viability, % of DMSO control for CC(C)=CCC12OC(C(C)(C)O)CC1C(=O)c1ccccc1C2=O (stereo not drawn) [Compound 5, glycoquinone] strictly below 90%?
A: Met

Q: A record lists CC(C)(O)C1Cc2c(c(O)c3ccccc3c2O)O1 (stereo not drawn) [Compound 1] . Is its Cell viability, % of DMSO control below 90%?
A: Met

Q: For this compound, is Cell viability, % of DMSO control lower than 90%? CC[C@H](CC[C@@H](C)[C@H]1CC[C@H]2[C@@H]3CC=C4C[C@@H](O)CC[C@]4(C)[C@H]3CC[C@]12C)C(C)C [Compound 8, β-sitosterol]
A: Not met

Q: Strictly below 90%: is that where Cell viability, % of DMSO control of CC(C)(C)CC(C)(C)c1ccc(OCCO)cc1 [triton X, reference compound] sits?
A: Met

Q: Bench note: check whether CC1(C)CC[C@]2(C)CC=C3[C@]4(C)CC[C@H]5C(C)(C)[C@@H](O)CC[C@]5(C)[C@H]4CC[C@@]3(C)[C@@H]2C1 [Compound 7, taraxerol] shows Cell viability, % of DMSO control below 90%
A: Not met

---

- Tested on: T. b. brucei
- ASSAY_REMARKS: Anti-trypanosomal Alamar blue 96-well microplate assay
- Format: cell-based, Trypanosoma brucei brucei S427 (blood stream form)
- TEST_PARAMETERS: T. b. brucei; screening of extract/fractions at 20, 10 and 5 μg/mL; pure compounds by MIC
- Method: Each fraction was screened at different concentrations of 20, 10 and 5 μg/mL. The assay was performed in duplicate for each sample. MIC assays were performed for samples having greater than 90% inhibition at a concentration of 20 μM in the initial screening campaign. The MIC values of the isolated compounds against T. b. brucei were determined by averaging the results of two independent assays. The concentrations were averaged and converted to μM. […]

{"columns": ["CHEMICAL_STRING", "anti-trypanosomal activity (in words)"],
 "data": [
  ["CC[C@H](CC[C@@H](C)[C@H]1CC[C@H]2[C@@H]3CC=C4C[C@@H](O)CC[C@]4(C)[C@H]3CC[C@]12C)C(C)C", "inactive"],
  ["CC1(C)CC[C@]2(C)CC=C3[C@]4(C)CC[C@H]5C(C)(C)[C@@H](O)CC[C@]5(C)[C@H]4CC[C@@]3(C)[C@@H]2C1", "inactive"],
  ["CC1(C)CC[C@]2(C)CC=C3[C@]4(C)CC[C@H]5C(C)(C)C(=O)CC[C@]5(C)[C@H]4CC[C@@]3(C)[C@@H]2C1", "inactive"]
]}
